TARGET ENTITY: KPC-2 β-lactamase (Klebsiella pneumoniae)
Construct: made in house; host or cells: E. coli BL21(DE3)
Sequence (Q9F663 25-293, looked up): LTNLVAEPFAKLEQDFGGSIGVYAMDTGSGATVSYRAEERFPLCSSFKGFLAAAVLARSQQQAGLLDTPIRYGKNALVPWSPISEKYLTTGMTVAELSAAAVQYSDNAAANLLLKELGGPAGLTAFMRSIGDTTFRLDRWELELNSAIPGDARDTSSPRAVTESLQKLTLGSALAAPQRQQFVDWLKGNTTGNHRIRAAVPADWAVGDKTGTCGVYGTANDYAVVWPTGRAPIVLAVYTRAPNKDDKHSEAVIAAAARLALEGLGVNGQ
PROCEDURE DETAILS: β-lactamase enzyme inhibition, KPC-2
Type: biochemical
SETUP CONDITIONS: imipenem substrate, 300 nm; 15 min at 37° C. preincubation; read-out: IC50 KPC-2 (Class A)
Could you please report measured IC50 for the items listed next?

## Input // Input: COC(=O)NCC(=O)N[C@H]1Cc2cccc(C(=O)O)c2OB1O [Example 56] . Output its IC50 only.
## Output 100 to 1000 nM

## Input // Input: O=C(Cc1ccc2c(c1)CNC2)N[C@H]1Cc2cccc(C(=O)O)c2OB1O [Example 64] . Output its IC50 only.
## Output < 100 nM

## Input // Input: CS(=O)(=O)CCC(=O)N[C@H]1Cc2cccc(C(=O)O)c2OB1O [Example 21] . Output its IC50 only.
## Output < 100 nM

## Input // Input: CC(CCC(=O)N[C@H]1Cc2cccc(C(=O)O)c2OB1O)=NO [Example 17] . Output its IC50 only.
## Output < 100 nM

## Input // Input: CC(=O)CCC(=O)N[C@H]1Cc2ccc(F)c(C(=O)O)c2OB1O [Example 47] . Output its IC50 only.
## Output < 100 nM

## Input // Input: CS(=O)(=O)NCCC(=O)N[C@H]1Cc2cc(F)c(F)c(C(=O)O)c2OB1O [Example 51] . Output its IC50 only.
## Output < 100 nM

## Input // Input: O=C(CCc1nccs1)N[C@H]1Cc2cccc(C(=O)O)c2OB1O [Example 31] . Output its IC50 only.
## Output < 100 nM

## Input // Input: COCCC(=O)N[C@H]1Cc2cccc(C(=O)O)c2OB1O [Example 26] . Output its IC50 only.
## Output < 100 nM

## Input // Input: O=C(CCN1C(=O)CCC1=O)N[C@H]1Cc2cccc(C(=O)O)c2OB1O [Example 34] . Output its IC50 only.
## Output < 100 nM

## Input // Input: CON=C(C)CCC(=O)N[C@H]1Cc2cccc(C(=O)O)c2OB1O [Example 18] . Output its IC50 only.
## Output < 100 nM

## Input // Input: CC(O)(O)C(=O)N[C@H]1Cc2cccc(C(=O)O)c2OB1O [Example 3] . Output its IC50 only.
## Output 100 to 1000 nM

## Input // Input: CNS(=O)(=O)CCC(=O)N[C@H]1Cc2cccc(C(=O)O)c2OB1O [Example 54] . Output its IC50 only.
## Output < 100 nM

## Input // Input: CC(Cl)(Cl)C(=O)N[C@H]1Cc2cccc(C(=O)O)c2OB1O [Example 11] . Output its IC50 only.
## Output < 100 nM

## Input // Input: COCCOCC(=O)N[C@H]1Cc2cccc(C(=O)O)c2OB1O [Example 27] . Output its IC50 only.
## Output < 100 nM

## Input // Input: N#CCC(=O)N[C@H]1Cc2cccc(C(=O)O)c2OB1O [Example 2] . Output its IC50 only.
## Output 100 to 1000 nM

## Input // Input: O=C(CN1CCCC1=O)N[C@H]1Cc2cccc(C(=O)O)c2OB1O [Example 33] . Output its IC50 only.
## Output < 100 nM

## Input // Input: O=C(O)c1cccc2c1OB(O)[C@@H](NC(=O)C(Cl)CC(F)F)C2 (stereo partly shown) [Example 5] . Output its IC50 only.
## Output < 100 nM

## Input // Input: CC(=O)CCC(=O)N[C@H]1Cc2cc(F)c(F)c(C(=O)O)c2OB1O [Example 50] . Output its IC50 only.
## Output < 100 nM

## Input // Input: O=C(CCn1ccnc1)N[C@H]1Cc2cccc(C(=O)O)c2OB1O [Example 29] . Output its IC50 only.
## Output < 100 nM

## Input // Input: O=C(CCC(=O)c1ccccc1)N[C@H]1Cc2cccc(C(=O)O)c2OB1O [Example 42] . Output its IC50 only.
## Output < 100 nM

## Input // Input: O=C(CCC(=O)C(F)(F)F)N[C@H]1Cc2cccc(C(=O)O)c2OB1O [Example 38] . Output its IC50 only.
## Output 100 to 1000 nM

## Input // Input: CNC(=O)CCC(=O)N[C@H]1Cc2cccc(C(=O)O)c2OB1O [Example 19] . Output its IC50 only.
## Output < 100 nM

## Input // Input: CC(C)CC(=O)N[C@H]1Cc2cccc(C(=O)O)c2OB1O [Example 6] . Output its IC50 only.
## Output < 100 nM

## Input // Input: CC(=O)CC(=O)CCC(=O)N[C@H]1Cc2cccc(C(=O)O)c2OB1O [Example 41] . Output its IC50 only.
## Output 100 to 1000 nM

## Input // Input: N#CCCCC(=O)N[C@H]1Cc2cccc(C(=O)O)c2OB1O [Example 14] . Output its IC50 only.
## Output < 100 nM

## Input // Input: CS(=O)(=O)NCCC(=O)N[C@H]1Cc2ccc(F)c(C(=O)O)c2OB1O [Example 48] . Output its IC50 only.
## Output < 100 nM

## Input // Input: CNS(=O)(=O)CCCC(=O)N[C@H]1Cc2cccc(C(=O)O)c2OB1O [Example 58] . Output its IC50 only.
## Output < 100 nM

## Input // Input: NC(=O)NCCC(=O)N[C@H]1Cc2cccc(C(=O)O)c2OB1O [Example 23] . Output its IC50 only.
## Output < 100 nM

## Input // Input: O=C(CCc1cncs1)N[C@H]1Cc2cccc(C(=O)O)c2OB1O [Example 32] . Output its IC50 only.
## Output < 100 nM

## Input // Input: O=C(/C=C/Cl)N[C@H]1Cc2cccc(C(=O)O)c2OB1O [Example 12] . Output its IC50 only.
## Output < 100 nM

## Input // Input: N#CCCC(=O)N[C@H]1Cc2ccc(F)c(C(=O)O)c2OB1O [Example 46] . Output its IC50 only.
## Output < 100 nM

## Input // Input: NC(=O)NCC(=O)N[C@H]1Cc2cccc(C(=O)O)c2OB1O [Example 36] . Output its IC50 only.
## Output 100 to 1000 nM

## Input // Input: CS(=O)(=O)CCCC(=O)N[C@H]1Cc2cccc(C(=O)O)c2OB1O [Example 59] . Output its IC50 only.
## Output < 100 nM

## Input // Input: O=C(CC(F)(F)F)N[C@H]1Cc2cccc(C(=O)O)c2OB1O [Example 4] . Output its IC50 only.
## Output 100 to 1000 nM

## Input // Input: CC(C)(Cl)CCC(=O)N[C@H]1Cc2cccc(C(=O)O)c2OB1O [Example 24] . Output its IC50 only.
## Output < 100 nM

## Input // Input: O=C(CC(C(F)(F)F)C(F)(F)F)N[C@H]1Cc2cccc(C(=O)O)c2OB1O [Example 9] . Output its IC50 only.
## Output 100 to 1000 nM

## Input // Input: CC(C)(C#N)CC(=O)N[C@H]1Cc2cccc(C(=O)O)c2OB1O [Example 43] . Output its IC50 only.
## Output < 100 nM
